- target-under-test: Cb5R in rat liver microsomes (Rattus norvegicus)
- Construct: testing the action of compounds 1 and 5 against the Cb5R present in rat liver microsomes; from tissue; host or cells: rat liver microsomes
- Sequence (P20070 1-301): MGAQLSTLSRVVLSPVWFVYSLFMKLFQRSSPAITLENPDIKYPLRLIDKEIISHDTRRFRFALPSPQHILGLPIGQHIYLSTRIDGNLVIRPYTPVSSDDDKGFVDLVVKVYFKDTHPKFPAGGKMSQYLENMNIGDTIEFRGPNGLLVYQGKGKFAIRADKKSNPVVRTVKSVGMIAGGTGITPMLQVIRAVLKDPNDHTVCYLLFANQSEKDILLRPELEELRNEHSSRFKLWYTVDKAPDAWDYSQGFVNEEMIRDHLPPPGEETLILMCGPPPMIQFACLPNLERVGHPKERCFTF
- assay-comment: NADH: ferricyanide reductase activity in rat liver microsomes
- Format: biochemical
- condition-parameters: microsomes 5.6 µg/mL of protein, equilibrated; read-out: IC50, NADH: ferricyanide reductase activity of microsomes, E form
property-label: pIC50
Note on units: pIC50 is unitless, being -log10 of a concentration expressed in mol/L.

QUERY: Record Oc1ccc2ccc(-c3ccc(O)c(O)c3)[o+]c2c1 : what is its pIC50 with Cb5R in rat liver microsomes (Rattus norvegicus)?
RESULT: 5.48

QUERY: Record Oc1ccc(-c2ccc3ccc(O)cc3[o+]2)cc1 : what is its pIC50 with Cb5R in rat liver microsomes (Rattus norvegicus)?
RESULT: 4.74

----------
- target-under-test: Cb5R in rat liver microsomes (Rattus norvegicus, UniProt P20070)
- Construct: testing the action of compounds 1 and 5 against the Cb5R present in rat liver microsomes; from tissue; host or cells: rat liver microsomes
- assay-comment: NADH: ferricyanide reductase activity in rat liver microsomes
- Type: biochemical
- condition-parameters: microsomes 5.6 µg/mL of protein, non-equilibrated; read-out: IC50, NADH: ferricyanide reductase activity of microsomes, NE form
property-label: IC50

QUERY: Record Oc1ccc2ccc(-c3ccc(O)c(O)c3)[o+]c2c1 : what is its IC50 with Cb5R in rat liver microsomes (Rattus norvegicus, UniProt P20070)?
RESULT: 8 µM
